# credit: paper PMC10481538

Entries and their half-life
Method summary: Phase 1 pharmacokinetic trial of CAP, plasma analysis by HPLC-MS/MS
Run conditions: both, human, plasma, po, 2 g, T1/2, single oral 2 g CAW (CAP), n = 7, mean (SEM)
Response body: numeric value in min, unit text excluded.

[
  {
    "Molecule": "O=C(O)CCc1cccc(O)c1 [HPP, 3-(3-hydroxyphenyl) propionic acid]",
    "half-life / min": 300
  },
  {
    "Molecule": "O=C(O)CCc1ccc(O)c(O)c1 [DHCA, Dihydrocaffeic acid]",
    "half-life / min": 108
  }
]

Q: So what does the record say about half-life for COc1ccc(/C=C/C(=O)O)cc1O [IFA, isoferulic acid] ?
Ans: 420
